- Tested system: human recombinant PDGFR beta (Homo sapiens)
- Sequence (P09619 33-1106): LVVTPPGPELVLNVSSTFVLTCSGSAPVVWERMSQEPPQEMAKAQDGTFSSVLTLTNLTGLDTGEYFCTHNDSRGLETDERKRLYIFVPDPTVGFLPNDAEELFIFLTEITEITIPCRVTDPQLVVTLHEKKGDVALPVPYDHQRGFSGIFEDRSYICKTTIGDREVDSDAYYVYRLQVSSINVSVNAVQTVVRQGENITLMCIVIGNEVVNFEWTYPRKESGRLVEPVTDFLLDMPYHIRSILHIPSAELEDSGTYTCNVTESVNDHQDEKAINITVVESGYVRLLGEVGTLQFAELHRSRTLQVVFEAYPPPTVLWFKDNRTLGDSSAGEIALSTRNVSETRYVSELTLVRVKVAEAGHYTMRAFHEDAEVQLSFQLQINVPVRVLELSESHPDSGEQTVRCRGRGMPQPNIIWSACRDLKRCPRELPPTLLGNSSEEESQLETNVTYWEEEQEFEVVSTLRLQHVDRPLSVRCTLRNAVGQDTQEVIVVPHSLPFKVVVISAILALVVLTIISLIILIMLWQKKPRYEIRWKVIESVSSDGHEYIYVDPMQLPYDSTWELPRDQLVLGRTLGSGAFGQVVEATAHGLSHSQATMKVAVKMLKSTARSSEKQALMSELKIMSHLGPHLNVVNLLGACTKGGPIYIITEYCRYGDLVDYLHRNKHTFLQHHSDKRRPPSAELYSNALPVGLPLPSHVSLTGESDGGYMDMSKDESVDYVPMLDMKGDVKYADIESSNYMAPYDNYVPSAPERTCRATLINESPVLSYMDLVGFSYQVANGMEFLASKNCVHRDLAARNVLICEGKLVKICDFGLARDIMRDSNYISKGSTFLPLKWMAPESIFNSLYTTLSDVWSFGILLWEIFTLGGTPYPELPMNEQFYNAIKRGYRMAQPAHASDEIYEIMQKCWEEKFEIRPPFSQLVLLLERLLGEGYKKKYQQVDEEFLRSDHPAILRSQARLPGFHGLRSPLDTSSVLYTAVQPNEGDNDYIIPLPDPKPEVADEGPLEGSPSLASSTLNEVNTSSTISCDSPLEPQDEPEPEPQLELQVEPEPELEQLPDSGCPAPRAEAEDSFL
- Assay name: IC50 determination for inhibitors of PDGFR kinase (IMAP fluorescence polarization)
- Reported conditions: 48 uM ATP, room temperature, 60 minutes; read-out: IC50 PDGFR kinase inhibition
- Procedure: IC50 Determination for Inhibitors of PDGFR Kinase Assay Principle PDGFR assay was carried out with human recombinant PDGFR beta, fluorescein labeled peptide substrate (with a peptide sequence of ALTSNQEYLDLSMPL) and test compounds (in serial dilution) using 384-well plates. […] After incubation at room temperature for 2 hours, the reaction product was analyzed on LJL Acquest. FP reading (in mP) was used to calculate reaction rate. […]
pIC50: −log10 of the molar value.
Listed molecules paired with reported pIC50

// query pIC50 value for entry Cc1ccccc1-c1cc2cnc(Nc3cccc([S+](C)[O-])c3)nc2c(=O)n1C (stereo not shown) [Example 10] 6.38

// query pIC50 value for entry Cc1ccccc1-c1cc2cnc(Nc3ccc(S(=O)(=O)NCCO)cc3)nc2c(=O)n1C [Example 6] 6.30 to 9.00

// query pIC50 value for entry Cc1cc(Cn2c(-c3ccccc3Cl)cc3cnc(Nc4ccc(N5CCN(C)CC5)cc4)nc3c2=O)nn1C [Example 30] 4.82 to 6.30

// query pIC50 value for entry COc1cccc(Cn2c(-c3ccccc3C)cc3cnc(Nc4ccc(N5CCN(C)CC5)cc4)nc3c2=O)c1 [Example 20] 4.82 to 6.30

###

- Tested system: human recombinant PDGFR beta (Homo sapiens)
- Assay name: IC50 determination for inhibitors of PDGFR kinase (IMAP fluorescence polarization)
- Reported conditions: 48 uM ATP, room temperature, 60 minutes; read-out: IC50 PDGFR kinase inhibition
Listed molecules paired with reported IC50

>>> df
                                   molecule      test_result
0  CCN(CC)CCOc1ccc(Nc2ncc3cc(-c4ccccc4C)n(C)c(=O)c3n2)cc1 [Example 7]  0.001 to 0.5 µM
1  Cc1ccccc1-c1cc2cnc(Nc3ccc(N4CCN(C)CC4)cc3)nc2c(=O)n1C [Example 3]         0.094 µM

// query IC50 value for entry Cc1ccccc1-c1cc2cnc(Nc3ccc(N4CCOCC4)cc3)nc2c(=O)n1C [Example 1] 0.001 to 0.5 µM

###

Entries with reported IC50 on Src (p60c-src) (Homo sapiens, UniProt P12931)
Sequence (P12931 whole entry): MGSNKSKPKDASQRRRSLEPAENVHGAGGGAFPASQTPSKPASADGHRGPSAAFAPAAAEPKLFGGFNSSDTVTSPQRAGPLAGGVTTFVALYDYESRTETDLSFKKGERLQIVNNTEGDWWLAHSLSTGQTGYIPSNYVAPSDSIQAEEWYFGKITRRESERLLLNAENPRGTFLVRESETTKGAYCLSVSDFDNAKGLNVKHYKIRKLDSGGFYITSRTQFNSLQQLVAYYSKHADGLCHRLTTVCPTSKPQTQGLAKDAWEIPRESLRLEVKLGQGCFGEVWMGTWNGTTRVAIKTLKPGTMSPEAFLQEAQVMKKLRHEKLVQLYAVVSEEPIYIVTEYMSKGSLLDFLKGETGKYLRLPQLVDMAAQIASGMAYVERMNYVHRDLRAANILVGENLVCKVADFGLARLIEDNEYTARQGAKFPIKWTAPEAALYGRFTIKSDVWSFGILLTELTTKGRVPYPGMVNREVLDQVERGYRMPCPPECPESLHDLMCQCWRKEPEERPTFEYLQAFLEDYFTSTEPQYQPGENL

The cases that follow already have their IC50 on record.
In [3]: df
Out[3]:
                                   compound                             tested_system     test_result
0  CCN(CC)CCOc1ccc(Nc2ncc3cc(-c4ccccc4Cl)n(Cc4cc(C)n(C)n4)c(=O)c3n2)cc1 [Example 31]  Src (p60c-src) (Homo sapiens, UniProt P12931)     1 to 500 nM
1  Cc1ccccc1-c1cc2cnc(Nc3ccc(S(=O)(=O)NCCO)cc3)nc2c(=O)n1CC(N)=O [Example 5]  Src (p60c-src) (Homo sapiens, UniProt P12931)     1 to 500 nM
2  Cc1ccccc1-c1cc2cnc(NC3CCOCC3)nc2c(=O)n1C [Example 12]  Src (p60c-src) (Homo sapiens, UniProt P12931)          687 nM
3  Cc1ccccc1-c1cc2cnc(NC(CO)CO)nc2c(=O)n1C [Example 4]  Src (p60c-src) (Homo sapiens, UniProt P12931)  500 to 1500 nM
4  Cc1ccccc1-c1cc2cnc(Nc3ccc(N4CCN(C)CC4)cc3)nc2c(=O)n1C [Example 3]  Src (p60c-src) (Homo sapiens, UniProt P12931)     1 to 500 nM
5  COc1cccc(Cn2c(-c3ccccc3Cl)cc3cnc(Nc4ccc(S(=O)(=O)NCCO)cc4)nc3c2=O)c1 [Example 37]  Src (p60c-src) (Homo sapiens, UniProt P12931)     1 to 500 nM

Now, please, on to the next compound.
// query IC50 value for entry Cc1ccccc1-c1cc2cnc(Nc3ccc(S(=O)(=O)NCCO)cc3)nc2c(=O)n1C [Example 6] 1 to 500 nM

Source listed as patent US8058283B2.
